biological target: D1 dopamine receptor (Homo sapiens, UniProt P21728); assay: Radioligand binding, cell membrane homogenates; design: expressed in transfected cells; host or cells: HEK-293
Sequence (P21728 whole entry): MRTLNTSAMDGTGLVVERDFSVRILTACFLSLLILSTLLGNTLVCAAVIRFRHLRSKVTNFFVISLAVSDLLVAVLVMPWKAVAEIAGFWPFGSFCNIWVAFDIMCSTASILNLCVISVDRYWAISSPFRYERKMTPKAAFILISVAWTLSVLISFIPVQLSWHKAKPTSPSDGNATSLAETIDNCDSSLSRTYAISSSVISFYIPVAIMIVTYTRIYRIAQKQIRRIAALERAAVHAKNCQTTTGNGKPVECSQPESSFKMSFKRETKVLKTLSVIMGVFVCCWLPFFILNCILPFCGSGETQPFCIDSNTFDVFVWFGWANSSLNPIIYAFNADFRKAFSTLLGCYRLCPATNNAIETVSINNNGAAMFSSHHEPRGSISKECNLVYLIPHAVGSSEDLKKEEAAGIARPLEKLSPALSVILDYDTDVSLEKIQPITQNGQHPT
reported_property: pKi
For clarity, pKi is expressed as the negative log10 of concentration in mol/L.

Query: Quick one: pKi for CCN(CC)C(=O)[C@@H]1C=C2c3cccc4[nH]c(Br)c(c34)C[C@H]2N(C)C1 [E559] ?
Result: 7.60

----------
target: Alpha 2A adrenergic receptor (Homo sapiens, UniProt P08913); construct: expressed in transfected cells; host or cells: HEK-293; assay: Functional assay in HEK-293 cells (Ca2+ flux); assay type: cell-based
Sequence (P08913 whole entry): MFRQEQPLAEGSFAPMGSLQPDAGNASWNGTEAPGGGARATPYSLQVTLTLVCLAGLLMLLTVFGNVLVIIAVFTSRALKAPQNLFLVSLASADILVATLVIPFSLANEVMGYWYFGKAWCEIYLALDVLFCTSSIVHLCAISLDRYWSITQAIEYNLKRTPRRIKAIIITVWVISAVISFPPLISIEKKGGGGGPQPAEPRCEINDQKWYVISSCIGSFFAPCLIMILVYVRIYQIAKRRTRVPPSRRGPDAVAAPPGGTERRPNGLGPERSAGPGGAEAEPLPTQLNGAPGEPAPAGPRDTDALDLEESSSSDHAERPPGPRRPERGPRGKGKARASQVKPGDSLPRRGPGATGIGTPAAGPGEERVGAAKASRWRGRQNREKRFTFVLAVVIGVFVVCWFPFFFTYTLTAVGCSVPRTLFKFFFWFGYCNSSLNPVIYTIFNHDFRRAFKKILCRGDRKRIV
reported_property: EC50

Query: I have this compound here, `CCN(CC)C(=O)[C@@H]1C=C2c3cccc4[nH]c(Br)c(c34)C[C@H]2N(C)C1` , and I need its recorded EC50.
Result: > 10 µM
